test-system: HERG (Homo sapiens (Human))
Sequence (Q12809 whole entry): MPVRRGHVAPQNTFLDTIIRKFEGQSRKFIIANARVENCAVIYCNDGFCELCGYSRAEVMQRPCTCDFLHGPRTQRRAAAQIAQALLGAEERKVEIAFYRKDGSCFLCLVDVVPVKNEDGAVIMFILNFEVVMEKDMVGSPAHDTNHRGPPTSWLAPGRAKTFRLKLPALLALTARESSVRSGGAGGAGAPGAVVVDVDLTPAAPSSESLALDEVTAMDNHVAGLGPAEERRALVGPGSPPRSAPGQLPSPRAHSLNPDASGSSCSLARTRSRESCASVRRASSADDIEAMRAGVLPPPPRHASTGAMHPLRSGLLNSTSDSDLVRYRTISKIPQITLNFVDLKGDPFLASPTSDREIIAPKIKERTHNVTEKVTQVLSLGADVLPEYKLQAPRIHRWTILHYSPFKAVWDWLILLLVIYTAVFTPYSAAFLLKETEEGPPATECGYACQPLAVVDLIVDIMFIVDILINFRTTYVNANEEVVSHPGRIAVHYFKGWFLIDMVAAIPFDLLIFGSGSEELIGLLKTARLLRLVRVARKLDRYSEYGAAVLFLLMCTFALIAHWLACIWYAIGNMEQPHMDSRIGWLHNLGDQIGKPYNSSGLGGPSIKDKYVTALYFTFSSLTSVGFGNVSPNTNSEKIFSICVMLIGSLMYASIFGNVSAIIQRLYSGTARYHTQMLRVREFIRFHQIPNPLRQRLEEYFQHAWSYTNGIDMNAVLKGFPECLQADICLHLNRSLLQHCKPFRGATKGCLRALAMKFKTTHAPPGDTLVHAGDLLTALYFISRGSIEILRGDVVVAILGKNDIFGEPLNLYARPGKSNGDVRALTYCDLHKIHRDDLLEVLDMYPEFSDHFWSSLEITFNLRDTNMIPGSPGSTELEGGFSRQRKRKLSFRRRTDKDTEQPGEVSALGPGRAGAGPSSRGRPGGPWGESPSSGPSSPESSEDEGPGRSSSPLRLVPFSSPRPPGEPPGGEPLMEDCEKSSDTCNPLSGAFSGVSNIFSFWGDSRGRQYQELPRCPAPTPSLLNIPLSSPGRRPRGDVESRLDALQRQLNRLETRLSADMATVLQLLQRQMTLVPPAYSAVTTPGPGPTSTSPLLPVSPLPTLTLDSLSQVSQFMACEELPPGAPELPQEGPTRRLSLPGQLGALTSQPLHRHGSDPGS
test-details: PDSP primary binding assay and secondary assay
protocol-conditions: secondary or functional assay
pKi: −log10 of the molar value.

compound-smiles | pKi
O=C(O)c1cccnc1Nc1c(Cl)ccc(OCc2ccccc2)c1Cl | < 5.00

---

test-system: CLC-2 (Homo sapiens (Human), UniProt P51788)
Sequence (P51788 whole entry): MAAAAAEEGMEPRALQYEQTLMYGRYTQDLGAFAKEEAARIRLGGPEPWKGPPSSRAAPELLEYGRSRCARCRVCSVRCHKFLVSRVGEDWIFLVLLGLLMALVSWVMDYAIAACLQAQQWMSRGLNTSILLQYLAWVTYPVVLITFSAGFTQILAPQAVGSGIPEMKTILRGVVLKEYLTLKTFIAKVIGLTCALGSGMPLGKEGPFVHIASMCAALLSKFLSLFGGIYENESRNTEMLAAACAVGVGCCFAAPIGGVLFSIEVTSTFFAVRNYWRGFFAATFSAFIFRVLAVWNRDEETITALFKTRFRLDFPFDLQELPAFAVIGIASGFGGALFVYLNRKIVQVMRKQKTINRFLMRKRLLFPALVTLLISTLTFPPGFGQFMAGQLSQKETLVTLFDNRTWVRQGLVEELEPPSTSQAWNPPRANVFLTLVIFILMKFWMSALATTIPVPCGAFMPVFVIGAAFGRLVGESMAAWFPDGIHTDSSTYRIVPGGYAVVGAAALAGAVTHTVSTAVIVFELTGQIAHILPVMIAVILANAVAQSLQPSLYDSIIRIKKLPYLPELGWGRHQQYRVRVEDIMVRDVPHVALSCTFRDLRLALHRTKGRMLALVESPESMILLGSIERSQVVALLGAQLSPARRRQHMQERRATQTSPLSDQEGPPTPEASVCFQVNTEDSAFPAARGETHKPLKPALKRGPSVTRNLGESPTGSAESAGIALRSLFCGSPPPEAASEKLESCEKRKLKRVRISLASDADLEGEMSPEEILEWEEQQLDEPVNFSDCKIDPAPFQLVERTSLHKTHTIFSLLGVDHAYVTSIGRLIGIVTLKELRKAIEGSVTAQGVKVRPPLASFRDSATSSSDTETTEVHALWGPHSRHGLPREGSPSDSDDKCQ
test-details: IonWorks Barracuda automated patch-clamp electrophysiology, human CLC-2 cell line
Assay type: cell-based
protocol-conditions: n = 4 cells, four concentrations of each compound; IonWorks Barracuda; read-out: IC50 (μM) against CLC-2
hey, just use yes (1) if measured IC50 is less than 10 µM, otherwise no (0)

compound | label-value
COc1ccccc1-c1ccc(Cl)c(Nc2ccccc2C(=O)O)c1Cl [AK3-101B] | yes (1)
O=C(O)c1cccc(COc2ccc(Cl)c(Nc3ccccc3C(=O)O)c2Cl)c1 | no (0)
NC(=O)c1ccc(COc2ccc(Cl)c(Nc3ccccc3C(=O)O)c2Cl)cc1 | no (0)
Cc1cccc(C)c1Nc1ccccc1C(=O)O [AK2-289C] | no (0)
Cc1cccc(Nc2ccccc2C(=O)O)c1Cl [AK2-200C] | no (0)
O=C(O)c1ccccc1Nc1c(Cl)ccc(OCC2CCCCC2)c1Cl [AK3-101A] | yes (1)
NC(=O)c1ccccc1COc1ccc(Cl)c(Nc2ccccc2C(=O)O)c1Cl | no (0)
O=C(O)c1ccccc1Nc1c(Cl)ccc(C2=CCCCC2)c1Cl [AK3-103B] | no (0)
Cc1ccc(Cl)c(Nc2ncccc2C(=O)O)c1Cl [AK3-108B] | yes (1)
Cc1ccc(Cl)c(Nc2cc(F)ccc2C(=O)O)c1Cl [AK3-98A] | no (0)
O=C(O)c1ccccc1Nc1c(Cl)cccc1Cl [AK2-209A] | no (0)
Cc1ccccc1COc1ccc(Cl)c(Nc2ccccc2C(=O)O)c1Cl | yes (1)
Cc1ccc(COc2ccc(Cl)c(Nc3ccccc3C(=O)O)c2Cl)cc1 | no (0)
Cc1ccc(C(=O)O)c(Nc2c(Cl)ccc(C)c2Cl)c1 [AK2-288A] | no (0)
C=C(C)c1ccc(Cl)c(Nc2ccccc2C(=O)O)c1Cl [AK2-289B] | yes (1)
Cc1cccc(COc2ccc(Cl)c(Nc3ccccc3C(=O)O)c2Cl)c1 | yes (1)
O=C(O)c1ccccc1Nc1c(Cl)ccc(OCc2ccccc2F)c1Cl | yes (1)
Cc1ccc(Cl)c(Nc2cccc(C(=O)O)c2)c1Cl [AK3-97A] | no (0)
Cc1ccc(Cl)c(Nc2ccccc2P(=O)(O)O)c1Cl | no (0)
CCOP(=O)(O)c1ccccc1Nc1c(Cl)ccc(C)c1Cl | no (0)

---

test-system: M3 (Homo sapiens (Human), UniProt P20309)
Sequence (P20309 whole entry): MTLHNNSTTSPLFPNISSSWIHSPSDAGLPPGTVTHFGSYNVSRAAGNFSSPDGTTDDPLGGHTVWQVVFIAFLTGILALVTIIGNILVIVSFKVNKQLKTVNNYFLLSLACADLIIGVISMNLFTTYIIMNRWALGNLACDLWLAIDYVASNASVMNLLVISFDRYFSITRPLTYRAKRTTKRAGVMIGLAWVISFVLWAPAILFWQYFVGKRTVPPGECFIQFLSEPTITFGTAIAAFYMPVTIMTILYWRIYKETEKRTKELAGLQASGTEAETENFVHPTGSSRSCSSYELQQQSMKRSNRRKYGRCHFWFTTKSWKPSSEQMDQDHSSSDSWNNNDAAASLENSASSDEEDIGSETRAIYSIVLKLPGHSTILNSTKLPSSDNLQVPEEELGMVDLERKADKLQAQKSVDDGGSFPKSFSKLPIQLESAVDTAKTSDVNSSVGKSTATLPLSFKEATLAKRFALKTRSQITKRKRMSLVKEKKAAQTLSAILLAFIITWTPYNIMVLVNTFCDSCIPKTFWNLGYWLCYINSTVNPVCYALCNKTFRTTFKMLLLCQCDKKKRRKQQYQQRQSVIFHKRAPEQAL
test-details: PDSP primary binding assay and secondary assay
protocol-conditions: secondary or functional assay
pKi: −log10 of the molar value.
measured-metric: pKi

compound | test-system | value
O=C(O)c1ccccc1Nc1c(Cl)ccc(OCc2ccccc2)c1Cl [AK3-99B] | M3 (Homo sapiens (Human), UniProt P20309) | < 5.00
O=C(O)c1cccnc1Nc1c(Cl)ccc(OCc2ccccc2)c1Cl | M3 (Homo sapiens (Human), UniProt P20309) | < 5.52

---

test-system: CLC-1 (Homo sapiens (Human))
Sequence (P35523 whole entry): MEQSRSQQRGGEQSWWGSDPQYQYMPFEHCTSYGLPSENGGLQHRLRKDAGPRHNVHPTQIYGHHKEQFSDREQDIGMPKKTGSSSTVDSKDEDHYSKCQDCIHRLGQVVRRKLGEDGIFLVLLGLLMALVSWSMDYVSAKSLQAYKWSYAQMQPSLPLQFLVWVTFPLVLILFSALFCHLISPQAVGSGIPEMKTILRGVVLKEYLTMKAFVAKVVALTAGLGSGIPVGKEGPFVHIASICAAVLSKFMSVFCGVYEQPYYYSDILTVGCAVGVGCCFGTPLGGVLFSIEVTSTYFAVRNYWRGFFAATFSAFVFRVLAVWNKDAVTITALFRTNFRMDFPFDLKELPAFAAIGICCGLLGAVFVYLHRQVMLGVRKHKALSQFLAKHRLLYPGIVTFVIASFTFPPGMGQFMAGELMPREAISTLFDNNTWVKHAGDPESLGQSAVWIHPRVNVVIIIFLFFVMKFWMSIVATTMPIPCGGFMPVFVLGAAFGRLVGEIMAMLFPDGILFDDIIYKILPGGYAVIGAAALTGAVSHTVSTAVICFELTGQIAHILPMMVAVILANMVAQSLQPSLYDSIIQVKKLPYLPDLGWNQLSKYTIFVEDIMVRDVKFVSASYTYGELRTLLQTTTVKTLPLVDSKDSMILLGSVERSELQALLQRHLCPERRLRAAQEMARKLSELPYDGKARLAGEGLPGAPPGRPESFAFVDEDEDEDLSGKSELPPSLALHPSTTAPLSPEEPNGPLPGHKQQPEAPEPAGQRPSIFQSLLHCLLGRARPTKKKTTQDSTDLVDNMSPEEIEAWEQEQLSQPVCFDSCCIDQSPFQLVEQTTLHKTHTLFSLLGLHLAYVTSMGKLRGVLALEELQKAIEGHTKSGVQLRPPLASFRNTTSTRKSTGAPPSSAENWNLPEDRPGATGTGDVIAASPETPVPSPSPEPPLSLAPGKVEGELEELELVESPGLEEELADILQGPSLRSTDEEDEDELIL
test-details: IonWorks Barracuda automated patch-clamp electrophysiology, CLC-1
Assay type: cell-based
protocol-conditions: Table 2
pIC50: −log10 of the molar value.

compound | test-system | pIC50
Cc1ccc(Cl)c(Nc2ccccc2C(=O)O)c1Cl [MCFA, meclofenamate, reference compound] | CLC-1 (Homo sapiens (Human)) | 4.22
Cc1ccc(Cl)c(Nc2ncccc2C(=O)O)c1Cl [AK3-108B] | CLC-1 (Homo sapiens (Human)) | < 4.52
O=C(O)c1ccccc1Nc1c(Cl)ccc(OCc2ccccc2)c1Cl [AK3-99B] | CLC-1 (Homo sapiens (Human)) | < 4.52
O=C(O)c1cccnc1Nc1c(Cl)ccc(OCc2ccccc2)c1Cl | CLC-1 (Homo sapiens (Human)) | < 4.00
